target: T1, human CD22 on B cells of human PBMCs (human, UniProt P20273 20-847); test: flow cytometry; Alexa Fluor 647-labelled antibody on CD20+ B cells of human PBMCs; further: test concentration or dose not given here
T1 construct: whole, on cells; also called CD22 on human B cells
Provide the recorded CD22 Median Fluorescent Intensity on CD20+ cells for the entries that follow.
One number for each entry.

>>> recorded_value("TNT80 (antibody, human IgG1, kappa, V domains shown) VH: QVQLQESGPGLVKPSDTLSLTCTVSGFAFSIYDMSWIRQPPGKGLEWIAYISSGGGTTYYNPSLKSRVTISVDTSKNQFSLKLSSVTAADTAVYYCARHSGYGTHWGVLFAYWGRGTLVTVSS VL: DIQMTQSPSSLSASVGDRVTITCRASQSISSYLNWYQQKPGKAPKLLIYAASSLQSGVPSRFSGSGSGTDFTLTISSLQPEDFATYYCQQGNTLPWTFGQGTKLEIKR")
1210

Provide each entry's CD22 Median Fluorescent Intensity on CD20+ cells from the list below.
1. TNT70 (antibody, human IgG1, kappa, V domains shown) VH: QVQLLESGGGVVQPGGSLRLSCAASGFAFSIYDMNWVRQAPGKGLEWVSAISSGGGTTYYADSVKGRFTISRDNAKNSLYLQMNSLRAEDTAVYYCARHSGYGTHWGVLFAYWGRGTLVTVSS VL: DIQMTQSPSSLSASVGDRVTITCRASQDIHGYLNWYQQKPGKAPKLLIYYTSILHSGVPSRFSGSGSGTDFTLTISSLQPEDFATYFCQQGNTLPWTFGQGTKLEIKR
2. TNT87 (antibody, human IgG1, kappa, V domains shown) VH: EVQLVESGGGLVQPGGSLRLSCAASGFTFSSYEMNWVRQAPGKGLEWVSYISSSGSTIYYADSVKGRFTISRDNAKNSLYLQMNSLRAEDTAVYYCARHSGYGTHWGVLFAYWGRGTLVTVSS VL: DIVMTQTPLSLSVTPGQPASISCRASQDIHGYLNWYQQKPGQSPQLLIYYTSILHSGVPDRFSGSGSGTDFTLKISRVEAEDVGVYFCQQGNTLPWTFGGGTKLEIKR
3. TNT72 (antibody, human IgG1, kappa, V domains shown) VH: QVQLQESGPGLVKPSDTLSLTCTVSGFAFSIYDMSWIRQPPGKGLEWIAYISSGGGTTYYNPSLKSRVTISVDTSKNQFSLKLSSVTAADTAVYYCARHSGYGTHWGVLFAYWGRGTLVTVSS VL: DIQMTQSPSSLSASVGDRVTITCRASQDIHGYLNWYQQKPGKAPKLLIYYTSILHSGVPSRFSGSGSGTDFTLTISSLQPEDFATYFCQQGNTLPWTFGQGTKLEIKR
4. TNT85 (antibody, human IgG1, kappa, V domains shown) VH: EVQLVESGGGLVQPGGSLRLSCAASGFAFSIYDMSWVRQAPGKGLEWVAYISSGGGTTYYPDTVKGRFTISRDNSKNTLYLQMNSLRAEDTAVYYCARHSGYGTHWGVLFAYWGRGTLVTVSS VL: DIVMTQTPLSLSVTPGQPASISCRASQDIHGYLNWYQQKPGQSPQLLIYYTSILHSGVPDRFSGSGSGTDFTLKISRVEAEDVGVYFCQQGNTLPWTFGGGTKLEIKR

1: 1560; 2: 1440; 3: 1560; 4: 1580

Where these numbers come from: patent US20220380768A1
